Parameter MIC: see the listing below.
System: Enterococcus faecalis
METHOD_DESCRIPTION: In vitro minimum inhibitory concentration against Streptococcus faecalis ATCC 7080
Format: functional

Worked set:
CC(=O)N[C@@H]1[C@H](O[C@@H]2c3ccc(c(Cl)c3)Oc3cc4cc(c3O[C@@H]3O[C@@H](CO)[C@@H](O)[C@H](O)[C@@H]3NC(=O)CCCCCCC(C)C)Oc3ccc(cc3Cl)C[C@H]3NC(=O)[C@H](N)c5ccc(O)c(c5)Oc5cc(O)cc(c5)[C@H](NC3=O)C(=O)N[C@H]4C(=O)N[C@H]3C(=O)N[C@@H]2C(=O)N[C@H](C(=O)NCCN)c2cc(O)cc(O[C@H]4O[C@H](CO)[C@@H](O)[C@@H](O)[C@@H]4O)c2-c2cc3ccc2O)O[C@@H](CO)[C@@H](O)[C@@H]1O; 0.12 µg/mL
N[C@H]1C(=O)N[C@@H]2Cc3ccc(c(Cl)c3)Oc3cc4cc(c3O)Oc3ccc(cc3Cl)[C@@H](O)[C@@H]3NC(=O)[C@H](NC(=O)[C@@H]4NC(=O)[C@@H](NC2=O)c2cc(O)cc(c2)Oc2cc1ccc2O)c1ccc(O)c(c1)-c1c(O)cc(O)cc1[C@@H](C(=O)NCCCN1CCOCC1)NC3=O; 0.12 µg/mL
CCN(CC)CCCNC(=O)[C@H]1NC(=O)[C@H]2NC(=O)[C@H](NC(=O)[C@@H]3NC(=O)[C@H]4NC(=O)[C@@H](Cc5ccc(c(Cl)c5)Oc5cc3cc(c5O)Oc3ccc(cc3Cl)[C@H]2O[C@@H]2O[C@@H](CO)[C@@H](O)[C@H](O)[C@@H]2NC(C)=O)NC(=O)[C@H](N)c2ccc(O)c(c2)Oc2cc(O)cc4c2)c2ccc(O)c(c2)-c2c(O)cc(O)cc21; 0.25 µg/mL
CC(=O)N[C@@H]1[C@H](O[C@@H]2c3ccc(c(Cl)c3)Oc3cc4cc(c3O[C@@H]3O[C@@H](CO)[C@@H](O)[C@H](O)[C@@H]3NC(=O)CCCCCCC(C)C)Oc3ccc(cc3Cl)C[C@H]3NC(=O)[C@H](N)c5ccc(O)c(c5)Oc5cc(O)cc(c5)[C@H](NC3=O)C(=O)N[C@H]4C(=O)N[C@H]3C(=O)N[C@@H]2C(=O)N[C@H](C(=O)NCCCN(C)C)c2cc(O)cc(O[C@H]4O[C@H](CO)[C@@H](O)[C@@H](O)[C@@H]4O)c2-c2cc3ccc2O)O[C@@H](CO)[C@@H](O)[C@@H]1O; 0.12 µg/mL

Could you now look at the following molecule, please?
Documented MIC of `CCOC(=O)CNC(=O)[C@H]1NC(=O)[C@H]2NC(=O)[C@H](NC(=O)[C@@H]3NC(=O)[C@H]4NC(=O)[C@@H](Cc5ccc(c(Cl)c5)Oc5cc3cc(c5O[C@@H]3O[C@@H](CO)[C@@H](O)[C@H](O)[C@@H]3NC(=O)CCCCCCC(C)C)Oc3ccc(cc3Cl)[C@H]2O[C@@H]2O[C@@H](CO)[C@@H](O)[C@H](O)[C@@H]2NC(C)=O)NC(=O)[C@H](N)c2ccc(O)c(c2)Oc2cc(O)cc4c2)c2ccc(O)c(c2)-c2c(O[C@H]3O[C@H](CO)[C@@H](O)[C@@H](O)[C@@H]3O)cc(O)cc21` : 0.12 µg/mL

---

System: Enterococcus faecalis
METHOD_DESCRIPTION: In vitro minimum inhibitory concentration against Streptococcus faecalis ATCC 7080
Format: functional
Measured MIC, listed per entry for reference.
Expressed in µg/mL, but write only the number.

For `CC(=O)N[C@@H]1[C@H](O[C@@H]2c3ccc(c(Cl)c3)Oc3cc4cc(c3O)Oc3ccc(cc3Cl)C[C@H]3NC(=O)[C@H](N)c5ccc(O)c(c5)Oc5cc(O)cc(c5)[C@H](NC3=O)C(=O)N[C@H]4C(=O)N[C@H]3C(=O)N[C@@H]2C(=O)N[C@H](C(=O)NCCN2CCOCC2)c2cc(O)cc(O[C@H]4O[C@H](CO)[C@@H](O)[C@@H](O)[C@@H]4O)c2-c2cc3ccc2O)O[C@@H](CO)[C@@H](O)[C@@H]1O` the compound record lists MIC as 1

---

Test system: Pseudomonas aeruginosa
METHOD_DESCRIPTION: In vitro minimum inhibitory concentration against Pseudomonas aeruginosa ATCC 10145
Type: functional
MEASURED_QUANTITY: MIC (µg/mL)
Report only the number, with the unit µg/mL understood.

CNCCN(C)C(=O)[C@H]1NC(=O)[C@H]2NC(=O)[C@H](NC(=O)[C@@H]3NC(=O)[C@H]4NC(=O)[C@@H](Cc5ccc(c(Cl)c5)Oc5cc3cc(c5O)Oc3ccc(cc3Cl)[C@H]2O)NC(=O)[C@H](N)c2ccc(O)c(c2)Oc2cc(O)cc4c2)c2ccc(O)c(c2)-c2c(O)cc(O)cc21; 64

MIC measured on `CN(C)CCCCNC(=O)[C@H]1NC(=O)[C@H]2NC(=O)[C@H](NC(=O)[C@@H]3NC(=O)[C@H]4NC(=O)[C@@H](Cc5ccc(c(Cl)c5)Oc5cc3cc(c5O)Oc3ccc(cc3Cl)[C@H]2O)NC(=O)[C@H](N)c2ccc(O)c(c2)Oc2cc(O)cc4c2)c2ccc(O)c(c2)-c2c(O)cc(O)cc21` = 32

---

System: Enterococcus faecalis
METHOD_DESCRIPTION: In vitro minimum inhibitory concentration against Streptococcus faecalis ATCC 7080
Assay type: functional
Measured MIC by item
Provide the reading as a plain figure in µg/mL.

CC(=O)N[C@@H]1[C@H](O[C@@H]2c3ccc(c(Cl)c3)Oc3cc4cc(c3O[C@@H]3O[C@@H](CO)[C@@H](O)[C@H](O)[C@@H]3NC(=O)CCCCCCC(C)C)Oc3ccc(cc3Cl)C[C@H]3NC(=O)[C@H](N)c5ccc(O)c(c5)Oc5cc(O)cc(c5)[C@H](NC3=O)C(=O)N[C@H]4C(=O)N[C@H]3C(=O)N[C@@H]2C(=O)N[C@H](C(=O)NCCN2CCOCC2)c2cc(O)cc(O[C@H]4O[C@H](CO)[C@@H](O)[C@@H](O)[C@@H]4O)c2-c2cc3ccc2O)O[C@@H](CO)[C@@H](O)[C@@H]1O; 0.12

Could you now look at the following compound, please?
`COC(=O)CNC(=O)[C@H]1NC(=O)[C@H]2NC(=O)[C@H](NC(=O)[C@@H]3NC(=O)[C@H]4NC(=O)[C@@H](Cc5ccc(c(Cl)c5)Oc5cc3cc(c5O)Oc3ccc(cc3Cl)[C@H]2O[C@@H]2O[C@@H](CO)[C@@H](O)[C@H](O)[C@@H]2NC(C)=O)NC(=O)[C@H](N)c2ccc(O)c(c2)Oc2cc(O)cc4c2)c2ccc(O)c(c2)-c2c(O)cc(O)cc21` yielded MIC of 0.5

---

In this section, each of the compounds is paired with its reported ED50.
Tested on: Streptococcus pyogenes
METHOD_DESCRIPTION: Subcutaneously administration into mice infected with Streptococcus pyogenes C 203
Format: functional
PROTOCOL_CONDITIONS: sc
// return numeric value only (unit: mg/kg, not printed)

Guide cases for ED50, answers given:
CC(=O)N[C@@H]1[C@H](O[C@@H]2c3ccc(c(Cl)c3)Oc3cc4cc(c3O[C@@H]3O[C@@H](CO)[C@@H](O)[C@H](O)[C@@H]3NC(=O)CCCCCCC(C)C)Oc3ccc(cc3Cl)C[C@H]3NC(=O)[C@H](N)c5ccc(O)c(c5)Oc5cc(O)cc(c5)[C@H](NC3=O)C(=O)N[C@H]4C(=O)N[C@H]3C(=O)N[C@@H]2C(=O)N[C@H](C(=O)NCCN2CCCC2)c2cc(O)cc(O[C@H]4O[C@H](CO)[C@@H](O)[C@@H](O)[C@@H]4O)c2-c2cc3ccc2O)O[C@@H](CO)[C@@H](O)[C@@H]1O; 0.06
NCCCNC(=O)[C@H]1NC(=O)[C@H]2NC(=O)[C@H](NC(=O)[C@@H]3NC(=O)[C@H]4NC(=O)[C@@H](Cc5ccc(c(Cl)c5)Oc5cc3cc(c5O)Oc3ccc(cc3Cl)[C@H]2O)NC(=O)[C@H](N)c2ccc(O)c(c2)Oc2cc(O)cc4c2)c2ccc(O)c(c2)-c2c(O)cc(O)cc21; 1.25

// ED50 lookup, compound = `CCN(CC)CCCNC(=O)[C@H]1NC(=O)[C@H]2NC(=O)[C@H](NC(=O)[C@@H]3NC(=O)[C@H]4NC(=O)[C@@H](Cc5ccc(c(Cl)c5)Oc5cc3cc(c5O)Oc3ccc(cc3Cl)[C@H]2O[C@@H]2O[C@@H](CO)[C@@H](O)[C@H](O)[C@@H]2NC(C)=O)NC(=O)[C@H](N)c2ccc(O)c(c2)Oc2cc(O)cc4c2)c2ccc(O)c(c2)-c2c(O)cc(O)cc21` , result: 0.95

---

As shown below, each of these compounds has a reported ED50 value.
System: Streptococcus pyogenes
METHOD_DESCRIPTION: Subcutaneously administration into mice infected with Streptococcus pyogenes C 203
Format: functional
PROTOCOL_CONDITIONS: sc

Recorded ED50, per entry:
NCCNC(=O)[C@H]1NC(=O)[C@H]2NC(=O)[C@H](NC(=O)[C@@H]3NC(=O)[C@H]4NC(=O)[C@@H](Cc5ccc(c(Cl)c5)Oc5cc3cc(c5O)Oc3ccc(cc3Cl)[C@H]2O)NC(=O)[C@H](N)c2ccc(O)c(c2)Oc2cc(O)cc4c2)c2ccc(O)c(c2)-c2c(O)cc(O)cc21; 1.25 mg/kg
CCN(CC)CCCNC(=O)[C@H]1NC(=O)[C@H]2NC(=O)[C@H](NC(=O)[C@@H]3NC(=O)[C@H]4NC(=O)[C@@H](Cc5ccc(c(Cl)c5)Oc5cc3cc(c5O)Oc3ccc(cc3Cl)[C@H]2O)NC(=O)[C@H](N)c2ccc(O)c(c2)Oc2cc(O)cc4c2)c2ccc(O)c(c2)-c2c(O)cc(O)cc21; 0.18 mg/kg

In the following, a different compound is considered.
Field ED50 (entry CCN1CCCC1CNC(=O)[C@H]1NC(=O)[C@H]2NC(=O)[C@H](NC(=O)[C@@H]3NC(=O)[C@H]4NC(=O)[C@@H](Cc5ccc(c(Cl)c5)Oc5cc3cc(c5O[C@@H]3O[C@@H](CO)[C@@H](O)[C@H](O)[C@@H]3NC(=O)CCCCCCC(C)C)Oc3ccc(cc3Cl)[C@H]2O[C@@H]2O[C@@H](CO)[C@@H](O)[C@H](O)[C@@H]2NC(C)=O)NC(=O)[C@H](N)c2ccc(O)c(c2)Oc2cc(O)cc4c2)c2ccc(O)c(c2)-c2c(O[C@H]3O[C@H](CO)[C@@H](O)[C@@H](O)[C@@H]3O)cc(O)cc21 (stereo partly drawn) ) reads 0.1 mg/kg
